// provenance: ChEMBL document CHEMBL1201862

# Test system: TK-10
# protocolDetails: NCI tumour cell line growth inhibition, 48 h
Active and inactive are the calls of the source. No stated cut-off is given here; in the data, active = GI50 up to about 1.1 µM and inactive = higher.
measuredMetric: GI50

INSERT INTO results (compound, recordedvalue) VALUES
  ('O=C1[C@@H]2[C@@H](c3ccccc3)[C@]2(Cl)C(=O)[C@H]2[C@H](c3ccccc3)[C@@]12Cl', '> 100 µM (inactive)'),
  ('CCCCN(CCCC)C(=O)C(=O)C(C(=O)C(=O)OC)c1nc2ccccc2o1 (stereo not drawn)', '> 100 µM (inactive)'),
  ('Nc1cc(=O)n(-c2ccccc2)c(=S)n1-c1ccccc1', '> 100 µM (inactive)'),
  ('Cc1ccc(S(=O)(=O)Nc2cc(O)nc3c2CCC3)cc1', '> 100 µM (inactive)'),
  ('CC1(C)O[C@H]2OC(CO)C(OS(C)(=O)=O)[C@H]2O1 (stereo partly drawn)', '> 100 µM (inactive)'),
  ('COc1cc(Cl)cc(O)c(=O)c1OC', '44.1 µM (inactive)'),
  ('COc1ccccc1N(CN1C(=O)CCC1C(=O)O)C(C)=O (stereo not drawn)', '> 100 µM (inactive)'),
  ('C[Si](C)(C)/C=C/CCC(C=O)(CCCl)c1ccccc1 (stereo not drawn)', '56.1 µM (inactive)'),
  ('COc1c(C)c(C/C=C(\C)CC/C=C(\C)CC/C=C(\C)CCC=C(C)C)c(OC)c2ccccc12', '> 100 µM (inactive)'),
  ('CC1(C)CC(=O)C=C(NC(=O)c2ccccc2)C1', '> 100 µM (inactive)'),
  ('OCCOCn1cc(Cn2ncc3c(SCc4ccccc4)ncnc32)nn1', '> 100 µM (inactive)'),
  ('CCC1CN2CCc3cc(OC)c(OC)cc3C2CC1CC1c2cc(OC)c(OC)cc2CCN1C(=O)C(N)Cc1ccccc1.[O-][Cl+3]([O-])([O-])O (stereo not drawn)', '2.75 µM (inactive)'),
  ('[N-]=[N+]=Nc1c([N+](=O)[O-])c(=O)n2c3c(cccc13)CCC2', '20 µM (inactive)');

---

# System: SK-MEL-5
# protocolDetails: NCI tumour cell line growth inhibition, 48 h
Activity calls are given as the source filed them. Rule as the data show it: active = GI50 up to about 1.1 µM and inactive = higher.
Classes used: active, inactive

INSERT INTO measurements (molecule, assaytarget, category) VALUES
  ('O=C1c2ccccc2C(=O)c2c1ccc1conc21', 'SK-MEL-5', 'inactive'),
  ('Cc1c(F)c(N)c2c(=O)cc(-c3ccc(NC(=O)CN(C)C)c(F)c3)oc2c1F', 'SK-MEL-5', 'inactive'),
  ('COc1ccc(-c2nc(SCC(=O)NNC(=S)Nc3ccccc3)[nH]c2-c2ccc(OC)cc2)cc1', 'SK-MEL-5', 'inactive'),
  ('N#Cc1ccc(OCc2ccc3nc(-c4ccccc4)c(Cl)nc3c2)cc1', 'SK-MEL-5', 'inactive'),
  ('N=c1oc2ccccc2cc1-c1nc2ccccc2[nH]1', 'SK-MEL-5', 'inactive'),
  ('O=C(Nc1nnc(-c2c(Cl)c(Cl)c(Cl)c(Cl)c2-c2nc3cc(C(=O)c4ccccc4)ccc3[nH]2)o1)c1ccc(Cl)cc1', 'SK-MEL-5', 'inactive'),
  ('CC(C)(Cl)C(Br)CCC(Br)(CCl)C(Cl)CBr (stereo not drawn)', 'SK-MEL-5', 'inactive'),
  ('Nn1c(-c2ccccc2)nc2ccc(Br)cc2c1=O', 'SK-MEL-5', 'inactive'),
  ('CC1CN(CCO)CC(C)O1 (stereo not drawn)', 'SK-MEL-5', 'inactive'),
  ('CN(C)/C=N\c1cccc2c1NSN2', 'SK-MEL-5', 'inactive'),
  ('Fc1ccc(-c2sc(-c3cccs3)cc2Cc2cccs2)cc1', 'SK-MEL-5', 'inactive'),
  ('Cc1cc(C)c(S(=O)(=O)ONC(=O)OC(C)(C)C)c(C)c1', 'SK-MEL-5', 'inactive'),
  ('CC(C)c1ccccc1SC1CC(=O)CC(Sc2ccccc2C(C)C)C12O[C@H](c1ccccc1)[C@@H](c1ccccc1)O2 (stereo partly drawn)', 'SK-MEL-5', 'inactive'),
  ('O=S(=O)(CCCCl)SCCCCl', 'SK-MEL-5', 'inactive'),
  ('N[C@H](C(=O)O)[C@@H](Cl)CC(=O)O', 'SK-MEL-5', 'inactive'),
  ('O=C(N/C(=C\c1ccc(/C=C(\NC(=O)c2ccccc2)c2nc3ccccc3s2)cc1)c1nc2ccccc2s1)c1ccccc1', 'SK-MEL-5', 'inactive'),
  ('CCOP(=O)(OCC)/C(C#N)=C/c1c(C)[nH]c2ccccc12', 'SK-MEL-5', 'inactive'),
  ('O=C(Cn1ccc(=O)[nH]c1=O)Nc1ccc(C(=O)O)c(O)c1', 'SK-MEL-5', 'inactive'),
  ('SCc1ccc(-c2ccc(CS)cc2)cc1', 'SK-MEL-5', 'inactive'),
  ('CN(C)CC(NC(NCS)C(=O)NCCNc1ccc(NCCNC(=O)C(NCS)NC(CN(C)C)OCCl)c2c1C(=O)c1c(O)ccc(O)c1C2=O)OCCl (stereo not drawn)', 'SK-MEL-5', 'active'),
  ('COC(=O)C1=C(C(=O)OC)C(C(=O)OC)C(C(=O)OC)=C1C(=O)OC', 'SK-MEL-5', 'inactive'),
  ('C[Si](C)(C)/N=C1\N2C(=NC1(C(F)(F)F)C(F)(F)F)Sc1ccccc12', 'SK-MEL-5', 'inactive'),
  ('O=C(O)CSc1nnc(/C=C/c2ccccc2)[nH]1', 'SK-MEL-5', 'inactive'),
  ('CC(OC(C)(C)C)[C@H](NC(=O)OCc1ccccc1)C(=O)NC(OCc1ccccc1)[C@H]1COC(C)(C)O1 (stereo partly drawn)', 'SK-MEL-5', 'inactive'),
  ('O=C(C(=O)N1CCc2ccccc21)c1c[nH]c2ccccc12', 'SK-MEL-5', 'inactive'),
  ('CC[N+]1(C)CCC(O)(c2ccc(C)cc2)C(C(=O)c2ccc(C)cc2)C1 (stereo not drawn)', 'SK-MEL-5', 'inactive'),
  ('CC(C)[C@](O)(C(=O)OCC1=CC[N+]2([O-])CC[C@@H](O)[C@@H]12)[C@H](C)O (stereo partly drawn) [INDICINE N-OXIDE]', 'SK-MEL-5', 'inactive'),
  ('Cc1ccc(S(=O)(=O)Nc2ccccc2C(C)(C)C)cc1', 'SK-MEL-5', 'inactive'),
  ('O=[N+]([O-])c1ccc2nc(/C(=N/Nc3ccccc3)C(O)c3ccco3)c(O)nc2c1 (stereo not drawn)', 'SK-MEL-5', 'inactive'),
  ('C=C1C(=O)O[C@H]2C(=O)[C@H](C)CCC/C(C)=C/CC[C@@]3(C)O[C@@H]3C[C@@H]12', 'SK-MEL-5', 'inactive'),
  ('Cc1cccc(-c2nnc3s/c(=C\c4ccc(N(C)C)cc4)c(=O)n23)c1', 'SK-MEL-5', 'inactive'),
  ('Oc1ccc2ccccc2c1OCc1nnc(CCCCCCCCc2nnc(COc3c(O)ccc4ccccc34)n2Nc2ccccc2)n1Nc1ccccc1', 'SK-MEL-5', 'active'),
  ('O=C(/C=C/c1ccc(O)c(O)c1)NC(CO)C(=O)O (stereo not drawn)', 'SK-MEL-5', 'inactive'),
  ('O=C(Nc1nc(C23CC4CC(CC(C4)C2)C3)cs1)c1cc2c(ccc3ccccc32)oc1=O', 'SK-MEL-5', 'inactive'),
  ('C=C(Cl)C(C)(Cl)CCC(Cl)C(C)(C)Cl (stereo not drawn)', 'SK-MEL-5', 'inactive'),
  ('CCOCc1cc(=O)c2c(OC)cc3c(c2o1)CCC(C)(C)O3', 'SK-MEL-5', 'inactive'),
  ('CC(C)/C(Cl)=N\OC(=O)NNc1ccccc1', 'SK-MEL-5', 'active'),
  ('C#CC1(OC(C)=O)CCC2C3CC=C4C=C(OC(C)=O)CCC4(C)C3CCC21C (stereo not drawn)', 'SK-MEL-5', 'inactive');
